systemTested: UniProtKB P0A6W3
Sequence (P0A6W3 whole entry): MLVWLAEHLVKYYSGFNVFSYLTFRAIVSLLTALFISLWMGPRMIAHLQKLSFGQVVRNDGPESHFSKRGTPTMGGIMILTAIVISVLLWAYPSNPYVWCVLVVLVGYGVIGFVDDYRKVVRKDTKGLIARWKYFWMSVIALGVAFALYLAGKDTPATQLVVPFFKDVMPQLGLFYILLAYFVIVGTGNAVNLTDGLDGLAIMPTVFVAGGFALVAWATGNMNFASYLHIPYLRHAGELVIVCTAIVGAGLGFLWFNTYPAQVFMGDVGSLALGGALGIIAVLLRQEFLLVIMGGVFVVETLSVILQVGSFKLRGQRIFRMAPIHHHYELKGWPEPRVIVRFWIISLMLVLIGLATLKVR
assayMethodText: Inhibitory concentration against translocase-I
Assignment: determine reported pIC50 for the given molecules.
Numbers only, as −log10 of the molar value.

• CCCCCCCCC(=O)O[C@@H]1[C@H](OC)[C@@H]([C@@H](O[C@H]2OC(C(=O)N[C@H]3CCCCNC3=O)=C[C@H](O)[C@@H]2O)C(N)=O)O[C@H]1n1ccc(=O)[nH]c1=O = 6.60
• CCCCCCCCCC(=O)O[C@@H]1[C@H](OC)[C@@H]([C@@H](O[C@H]2OC(C(=O)N[C@H]3CCCCNC3=O)=C[C@H](O)[C@@H]2O)C(N)=O)O[C@H]1n1ccc(=O)[nH]c1=O = 6.38
• CCCCCCC(=O)O[C@@H]1[C@H](OC)[C@@H]([C@@H](O[C@H]2OC(C(=O)N[C@H]3CCCCNC3=O)=C[C@H](O)[C@@H]2O)C(N)=O)O[C@H]1n1ccc(=O)[nH]c1=O = 7.23

Please turn your attention to the following entry.
Task: Using the record for CO[C@H]1[C@@H](O)[C@H](n2ccc(=O)[nH]c2=O)O[C@@H]1[C@@H](O[C@H]1OC(C(=O)N[C@H]2CCCCNC2=O)=C[C@H](O)[C@@H]1O)C(N)=O [CAPURAMYCIN] , report its pIC50.
Output: 7.76
